Quick list: TGI per entry.
System: SNB-78 CNS
PROTOCOL_DESCRIPTION: NCI tumour cell line growth inhibition, 48 h

As a guide, the following entries are already answered.
[
  {
    "COMPOUND": "Cc1ccc2nc(NC(=O)C(=O)C(C#N)c3ccc(Cl)cc3)sc2c1 (stereo not drawn)",
    "VAL": "> 50 µM"
  },
  {
    "COMPOUND": "COC1=CC(C2c3cc4c(cc3[C@@H](Nc3ccc(F)cc3)C3COC(=O)[C@H]23)OCO4)=CC(=O)C1=O (stereo partly drawn)",
    "VAL": "> 96.4 µM"
  }
]

Next compound, please.
input: GET TGI | system: SNB-78 CNS | item: `COCCOc1cc(C)cc(/C=C(C)/C=C/C2=C(C)CCCC2(C)C)n1`
output: > 100 µM
